- Experiment Summary: osmotic lysis modulators in infected erythrocytes, primary screen, PSAC antagonist project, cell-based, P. falciparum Indochina, OD700, 3 h (AID 1156)
- Study Conditions: higher = more signal, called active from +8 up or from −8 down
Activity calls are given as the source filed them.
Form field: z-score (one value per entry).

Molecule: CC1(C)[C@@H]2CC(C(O)C3C=CC4C(=O)N(c5ccccc5)C(=O)C4N3Nc3ccc([N+](=O)[O-])cc3)=C[C@H]1C2 (stereo partly specified)
z-score: 2.92 (inactive)
--
Molecule: O=C1O[C@@H](c2ccccc2)[C@@H](c2ccccc2)N2[C@@H](c3ccccc3OCCO)[C@]3(C(=O)Nc4ccccc43)[C@@H](C(=O)Nc3nc4ccccc4s3)[C@H]12
z-score: 0.0197 (inactive)
--
Molecule: C[C@@]1([C@@H](NC(=O)c2ccc(-c3ccccc3)cc2)c2ccc(Cl)cc2)C[C@H]1C1CCCCC1
z-score: -0.0758 (inactive)
--
Molecule: COCCOC(=O)N1C(=O)[C@@]2(c3cc(C#CCNC(N)=O)ccc31)[C@H](C(=O)N1CCN(c3ncccn3)CC1)[C@H]1C(=O)O[C@H](c3ccccc3)[C@H](c3ccccc3)N1[C@@H]2c1ccc(OCCO)cc1
z-score: 1.26 (inactive)
--
Molecule: COc1cc2c(cc1OC)CN(C(=O)[C@H]1[C@@H]3C(=O)O[C@@H](c4ccccc4)[C@@H](c4ccccc4)N3[C@@H](c3ccc(O)cc3)[C@]13C(=O)Nc1ccccc13)CC2
z-score: -0.473 (inactive)
--
Molecule: COc1ccc(CCNC(=O)[C@@]2(C)c3ccccc3C(=O)N(C(C)C)[C@H]2c2ccc(CO)cc2)cc1
z-score: 0.386 (inactive)

###

- Experiment Summary: mitochondrial membrane potential change in A549 cells, profiling panel, cell-based, JC-1 fluorescence, basal, 24 h, 100 nL (AID 1138);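 further: A549 lung adenocarcinoma cells under basal conditions with no added stimulus; test concentration not given here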
- Study Conditions: higher = more signal
Quick rule: z-score of at least 0.3 means t, below that means f.

Molecule: C=C[C@@H](COC(=O)OC(C)(C)C)N(Cc1ccc(OC)cc1)S(=O)(=O)c1ccc(Br)cc1
Discrete Label: t

Molecule: O=C1[C@@]23C=C(Br)[C@H](C[C@@H]2CCOC3)[C@@]12CO2
Discrete Label: t

Molecule: CCC(CC)C(O)C1C=CC2C(=O)NC(=O)C2N1Nc1ccc(Cl)cc1Cl (stereo not drawn)
Discrete Label: f

Molecule: CC(C)=CCCC(C)=CC(O)C1C=CC2C(=O)N(C)C(=O)C2N1Nc1ccccc1 (stereo not drawn)
Discrete Label: t

Molecule: [N-]=[N+]=NCc1ccccc1C[C@]1(C(=O)N2CCCCC2)N=C(c2ccc(OCCCO)cc2)O[C@H]1c1ccccc1N=[N+]=[N-]
Discrete Label: f

Molecule: CC1CC/C=C\[C@H]2OC34C=CCN(C(C)(C)C)C(=O)[C@H]3N(C(C)CO)C(=O)[C@@H]4C2C(=O)O1 (stereo partly drawn)
Discrete Label: t

Molecule: CCOC(=O)C[C@H]1[C@H](OC(=O)c2ccc(-c3ccccc3)cc2)[C@@H](NC(=O)Cc2ccc(OC)cc2)c2cc(OCCCO)ccc2N1C(=O)c1ccccc1
Discrete Label: f

Molecule: O=C(NCCN1CCOCC1)[C@@H]1c2ccccc2C(=O)N(C2CCCCC2)[C@H]1c1ccc(CO)cc1
Discrete Label: t

###

- Experiment Summary: yeast growth modulation, basal conditions, primary screen, YJM789 clinical isolate, OD600, 24 h (AID 1089);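 further: growth of clinical yeast isolate S. cerevisiae YJM 789 seeded 1000 cells per well; test concentration not given here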
- Study Conditions: S. cerevisiae YJM789 growth, higher = more signal, called active from +8 up or from −8 down
z-score: recorded values

Compound: C=CCOC(=O)[C@H]1[C@@H]2C(=O)O[C@@H](c3ccccc3)[C@@H](c3ccccc3)N2[C@@H](c2ccc(OCCOC(=O)[C@H]3C[C@H]4C(=O)N[C@@H](CCCCN(C)C)C(=O)N4[C@H]3c3ccc(O)cc3)cc2)[C@]12C(=O)Nc1ccc(I)cc12
z-score: -0.0743

Compound: COC(=O)[C@@]1(Cc2ccccc2)N=C(c2ccc(OCCCO)cc2)O[C@H]1c1ccccc1
z-score: -0.774

Compound: CC(C)C[C@@H]1NC(=O)[C@H](C(C)C)NC(=O)[C@@]23C(=O)N[C@@H](Cc4ccccc4)C2[C@H](C)[C@@]2(C)O[C@H]2C3/C=C/CC/C=C/CNC1=O (stereo not given in full)
z-score: -0.0106

Compound: COC(=O)[C@H](Cc1ccccc1)N[C@@H](/C=C/C1CC1)[C@H](O)Cc1ccccc1
z-score: -0.701

Compound: C=CC[C@@]1(C(=O)NCCN2CCOCC2)N=C(c2ccc(OCCCO)cc2)O[C@@H]1c1ccccc1N=[N+]=[N-]
z-score: 0.658

Compound: C=CCN1C(=O)[C@@]2(Cc3ccccc31)N=C(c1ccc(OCCCO)cc1)O[C@H]2c1ccccc1
z-score: -1.95

Compound: O=C(N1CCCCC1)[C@]1(Cc2ccccc2)N=C(c2ccc(OCCCO)cc2)O[C@@H]1c1ccccc1
z-score: -0.425

Compound: NC(=O)NCC#Cc1ccc2c(c1)[C@]1(C(=O)N2)[C@H](C(=O)Nc2nc3ccccc3s2)[C@H]2C(=O)O[C@H](c3ccccc3)[C@H](c3ccccc3)N2[C@@H]1c1ccccc1OCCO
z-score: 1.17

Compound: C=C(CCCC)/C(=C/C[C@H](OC(C)=O)c1ccccc1OCCO)c1cc(C(=O)OC)ccc1OC
z-score: 0.556

Compound: C[N+](C)(C)CCCCNC(=O)[C@H]1C[C@H]2C(=O)N3CCC[C@H]3C(=O)N2[C@H]1c1cccc(OCCO)c1
z-score: 0.573

Compound: COC(=O)[C@H](Cc1ccccc1)N1CC2=C[C@@H](C3CC3)n3c(=O)n(C)c(=O)n3[C@H]2[C@@H]1[C@@H](O)Cc1ccccc1
z-score: -0.973

Compound: Cc1nc2cc(Br)ccc2c(=O)o1
z-score: -0.764

Compound: COCCOC(=O)N1C(=O)[C@@]2(c3cc(C#Cc4ccc(OC)cc4)ccc31)[C@H](c1ccccc1OCCO)N1[C@H](c3ccccc3)[C@H](c3ccccc3)OC(=O)[C@H]1[C@@H]2C(=O)NC[C@H](O)c1ccccc1
z-score: 2.89

Compound: CCCCN1CC=CC23O[C@@H]4C=CCCOC(=O)C4[C@H]2C(=O)N(CCCCCCO)[C@@H]3C1=O (stereo not given in full)
z-score: -0.0739

Compound: COC(=O)[C@@]1(Cc2ccc(OC)cc2)[C@H]2c3cc(C(=O)N(C)C)n(Cc4ccccn4)c3C[C@H]2CN1C(=O)c1ccccc1
z-score: 0.0106

Compound: O=C(CS)NCCCCCCNC(=O)[C@@H]1C[C@@H]2C(=O)NCC(=O)N2[C@@H]1c1cccc(OCCO)c1
z-score: 0.309

Compound: CCCC[C@@H]1C[C@H]1[C@@H](NC(=O)c1cccs1)c1ccc(-c2ccccc2)cc1
z-score: 0.227

Compound: C=C(C)[C@@H]1CC=C(C(O)C2C=CC3C(=O)N(c4ccccc4)C(=O)C3N2Nc2ccccc2)CC1 (stereo not given in full)
z-score: 0.0118

Compound: C=C(/C(=C/C[C@H](OC(C)=O)c1ccc(CO)o1)c1cc(C(=O)OC)ccc1OC)C(C)C
z-score: 1.02

Compound: O[C@@H](Cc1ccccc1)[C@H]1C2C=CCCC=C2CN1Cc1cccc(Cl)c1 (stereo not given in full)
z-score: -0.14

Compound: C=C[C@H](CO)NS(=O)(=O)c1ccc(Br)cc1
z-score: 0.198

Compound: [N-]=[N+]=Nc1ccccc1[C@@H]1OC(c2ccc(OCCCO)cc2)=N[C@]1(Cc1ccccc1)C(=O)N1CCOCC1
z-score: 0.785

Compound: CN1C(=O)C2C=CC(C(O)c3ccccc3)N(N(c3ccccc3)c3ccccc3)C2C1=O (stereo not given)
z-score: 0.0175

Compound: CCCC[C@@H]1C[C@H]1[C@@H](NC(=O)C(C)(C)C)c1ccc(C(F)(F)F)cc1
z-score: 0.213

Compound: NCCCCCNC(=O)[C@@H]1C[C@@H]2C(=O)N[C@@H](Cc3ccccc3)C(=O)N2[C@@H]1c1ccc(O)cc1
z-score: -0.247

Compound: Cc1ccc(S[C@]2(C(=O)NCCCN(C)C)CC(=O)N(Cc3cc(C(F)(F)F)cc(C(F)(F)F)c3)[C@@H]2c2ccc(CO)cc2)cc1
z-score: -1.15

Compound: CC(C)NC(=O)[C@@H]1c2ccccc2C(=O)N(C2Cc3ccccc3C2)[C@H]1c1ccc(CO)cc1
z-score: -0.14

Compound: CCOC(=O)C[C@H]1[C@H](OC(=O)c2ccc(C(=O)c3ccccc3)cc2)[C@@H](NC(=O)c2ccccc2)c2cc(OCCCO)ccc2N1C(=O)c1ccc2ccccc2n1
z-score: -0.121

Compound: COc1cc2c(cc1OC)CN(C(=O)[C@@H]1[C@H]3C(=O)O[C@H](c4ccccc4)[C@H](c4ccccc4)N3[C@H](c3ccc(O)cc3)[C@@]13C(=O)Nc1ccccc13)CC2
z-score: 0.27

Compound: CC(C)C[C@@H]1NC(=O)[C@@H]2C[C@H](C(=O)O)[C@H](c3cccc(OCCO)c3)N2C1=O
z-score: -0.19
